These entries and their values trace back to patent US12466849B2.

The reader will find CC50 measurements below, all made with enterovirus-68 (EV-68, US/DY/14-18953).
Respond with the bare value in µM.

Return the recorded CC50 value; entry: CC(C)(C)C(=O)SCCOP(=O)(OCCSC(=O)C(C)(C)C)OCC1=CC(O)C(n2cnc3c(=O)[nH]c(N)nc32)O1 (centres unmarked) [SATE-ddhG]
83

Return the recorded CC50 value; entry: CC(C)(C)C(=O)SCCOP(=O)(OCCSC(=O)C(C)(C)C)OCC1=CC(O)C(n2cnc3c(N)ncnc32)O1 (centres unmarked) [SATE-ddhA]
2

----------
Give CC50 for every item shown.

Check respiratory syncytial virus (RSV, A2) data and give CC50 for CC(C)(C)C(=O)SCCOP(=O)(OCCSC(=O)C(C)(C)C)OCC1=CC(O)C(n2cnc3c(=O)[nH]cnc32)O1 (stereo not drawn) [SATE-ddhI] .
> 1000 µM

Check respiratory syncytial virus (RSV, A2) data and give CC50 for CC(C)(C)C(=O)SCCOP(=O)(OCCSC(=O)C(C)(C)C)OCC1=CC(O)C(n2ccc(=O)[nH]c2=O)O1 (stereo not drawn) [SATE-ddhU] .
180 µM

Check respiratory syncytial virus (RSV, A2) data and give CC50 for CC(C)(C)C(=O)SCCOP(=O)(OCCSC(=O)C(C)(C)C)OCC1=CC(O)C(n2ccc(N)nc2=O)O1 (stereo not drawn) [SATE-ddhC] .
540 µM

----------
experiment-notes: Liver (hepatic) S9 stability, rat
run-conditions: s9
metric-name: microsomal CLint at 1 μM (µL/min/mg)
Respond with the bare value in µL/min/mg.

Return the recorded microsomal CLint at 1 μM value; entry: COc1ccc2c(c1)[C@]13CCCC[C@@H]1[C@H](C2)N(C)CC3 [Dextromethorphan]
23.6

----------
experiment-notes: in vitro
run-conditions: African green monkey
metric-name: CC50

Return the recorded CC50 value; entry: Nc1nc2c(ncn2[C@@H]2OC(CO)=CC2O)c(=O)[nH]1 (stereo partly shown) [AB21651]
> 2000 µM

----------
experiment-notes: Liver (hepatic) S9 stability, rat
run-conditions: s9
metric-name: half-life at 1 μM
Include the unit right after the number.

Return the recorded half-life at 1 μM value; entry: COc1ccc2c(c1)[C@]13CCCC[C@@H]1[C@H](C2)N(C)CC3
58.8 min

----------
experiment-notes: in vitro
run-conditions: human
metric-name: CC50

Return the recorded CC50 value; entry: Nc1ccn([C@@H]2OC(CO)=C[C@H]2O)c(=O)n1 [AB21650, 3′-deoxy-3′,4′-didehydro cytidine]
> 2000 µM

----------
experiment-notes: in vivo
run-conditions: male, Sprague-Dawley, rat, iv, 10 mg/kg, AUCInf
metric-name: AUC(0-inf) (µM·h)
Respond with the bare value in µM·h.

Return the recorded AUC(0-inf) value; entry: CCCCCCCCCCCCCCCCOCCCOP(=O)(O)OCC1=C[C@H](O)[C@H](n2cnc3c(=O)[nH]c(N)nc32)O1 [AB23040]
9.13

Return the recorded AUC(0-inf) value; entry: CCCCCCCCCCCCCCCCOCCCOP(=O)(O)CO[C@H](CO)Cn1ccc(N)nc1=O [BCV, Brincidofovir]
9.01

----------
System: JC virus (JCV)
experiment-notes: microbe, parasite or virus in culture
run-conditions: JC polyomavirus, COS-7
Give EC50 for every item shown.
Respond with the bare value in µM.

Return the recorded EC50 value; entry: CCCCCCCCCCCCCCCCOCCCOP(=O)(O)CO[C@H](CO)Cn1ccc(N)nc1=O [BCV, Brincidofovir]
0.74

Return the recorded EC50 value; entry: CCCCCCCCCCCCCCCCOCCCOP(=O)(O)OCC1=C[C@H](O)[C@H](n2cnc3c(=O)[nH]c(N)nc32)O1 [AB23040]
8.85

Return the recorded EC50 value; entry: CCCCCCCCCCCCCCCCOCCCOP(=O)(O)OCC1=CC(O)C(n2ccc(=O)[nH]c2=O)O1 (stereo not shown) [AB23039]
0.21

Return the recorded EC50 value; entry: Nc1ccn(C[C@@H](CO)OCP(=O)(O)O)c(=O)n1 [CDV, Cidofovir, reference compound]
5.66
